biological target: human D3 receptor (Homo sapiens, UniProt P35462); construct: expressed in transfected cells; host or cells: CHO; assay: Radioligand binding to dopamine receptor D3 ([3H] Spiperone, CHO membranes); conditions: read-out: Dopamine receptors, % inhibition D3
Sequence (P35462 whole entry): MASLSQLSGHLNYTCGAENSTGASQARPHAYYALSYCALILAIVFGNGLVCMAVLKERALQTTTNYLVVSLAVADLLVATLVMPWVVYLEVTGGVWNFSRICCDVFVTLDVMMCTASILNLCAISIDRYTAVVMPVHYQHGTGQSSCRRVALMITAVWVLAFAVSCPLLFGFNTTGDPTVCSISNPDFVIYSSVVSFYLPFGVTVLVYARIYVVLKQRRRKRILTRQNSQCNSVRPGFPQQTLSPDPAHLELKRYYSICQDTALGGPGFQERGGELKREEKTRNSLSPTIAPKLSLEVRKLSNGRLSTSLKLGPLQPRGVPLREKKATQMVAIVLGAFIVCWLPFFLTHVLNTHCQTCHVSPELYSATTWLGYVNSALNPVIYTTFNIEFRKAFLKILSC
Listed below: inhibition at 10 µM values for each entry.
Numeric only. Scale: %

// solved cases for inhibition at 10 µM follow
{"MOLECULE": "Cc1ccc2c(c1)[C@@H]1CN(C)CCC[C@@H]1N2CCc1ccc(C)nc1 (relative stereo) [1.6.1(2)·3HCl]", "inhibition at 10 µM [%]": 41}
{"MOLECULE": "Cc1ccc2c(c1)[C@@H]1CN(C)CCC[C@@H]1N2CCc1cccnc1 (relative stereo) [1.6.1(1)·3HCl]", "inhibition at 10 µM [%]": 34}
{"MOLECULE": "CN1CCc2c(c3ccccc3n2Cc2ccccc2)C1", "inhibition at 10 µM [%]": 65}

Switching to the query record.
Task: Give reported inhibition at 10 µM for Cc1ccc2c(c1)c1c(n2CCc2ccccc2)CCN(C)C1 [1.1.2(1-2) ·2HCl] (human D3 receptor (Homo sapiens, UniProt P35462))
Result: 99

Origin of values: patent EP2236511A2
